Sourced from paper PMC7281150

Below is a list of entries, each paired with its recorded melting point value.

Please review the entries below; each comes with its answer.
* CC(=O)O[C@@H]1O[C@H](CSC2=CC(=O)c3c(O)ccc(O)c3C2=O)[C@@H](OC(C)=O)[C@H](OC(C)=O)[C@H]1OC(C)=O [SAB-21] | 207 to 210 °C
* CC(=O)O[C@@H]1O[C@H](CSC2=C(Cl)C(=O)c3c(O)c(Cl)c(Cl)c(O)c3C2=O)[C@@H](OC(C)=O)[C@H](OC(C)=O)[C@H]1OC(C)=O [SAB-19] | 156 to 159 °C
* CC(=O)O[C@@H]1O[C@H](CSC2=C(SC[C@H]3O[C@@H](OC(C)=O)[C@H](OC(C)=O)[C@@H](OC(C)=O)[C@@H]3OC(C)=O)C(=O)c3c(O)c(C)c(C)c(O)c3C2=O)[C@@H](OC(C)=O)[C@H](OC(C)=O)[C@H]1OC(C)=O [SAB-9] | 202 to 205 °C

What value of measured melting point is listed for CC(=O)O[C@@H]1O[C@H](CSC2=C(C)C(=O)c3c(O)cccc3C2=O)[C@@H](OC(C)=O)[C@H](OC(C)=O)[C@H]1OC(C)=O [SAB-7] ?
160 to 161 °C

Also need CC(=O)O[C@@H]1O[C@H](CSc2c(C)c(O)c3c(c2O)C(=O)C(O)=C(O)C3=O)[C@@H](OC(C)=O)[C@H](OC(C)=O)[C@H]1OC(C)=O [SAB-3] , thanks.
207 to 211 °C

----------
Below is a list of entries, each paired with its recorded melting point value.

• CCC1=C(O)C(=O)c2c(O)c(SC[C@H]3O[C@@H](OC(C)=O)[C@H](OC(C)=O)[C@@H](OC(C)=O)[C@@H]3OC(C)=O)c(OC)c(O)c2C1=O = 167 to 171 °C
• CCc1c(O)c2c(c(O)c1SC[C@H]1O[C@@H](OC(C)=O)[C@H](OC(C)=O)[C@@H](OC(C)=O)[C@@H]1OC(C)=O)C(=O)C(C)=C(C)C2=O = 179 to 182 °C
• CC(=O)O[C@@H]1O[C@H](CSC2=CC(=O)c3c(O)c(C)c(C)c(O)c3C2=O)[C@@H](OC(C)=O)[C@H](OC(C)=O)[C@H]1OC(C)=O = 203 to 205 °C
• CC(=O)Oc1cccc2c1C(=O)C=C(SC[C@H]1O[C@@H](OC(C)=O)[C@H](OC(C)=O)[C@@H](OC(C)=O)[C@@H]1OC(C)=O)C2=O = 172 to 175 °C
• COc1c(O)c2c(c(O)c1SC[C@H]1O[C@@H](OC(C)=O)[C@H](OC(C)=O)[C@@H](OC(C)=O)[C@@H]1OC(C)=O)C(=O)C(O)=CC2=O = 109 to 112 °C

Consider the record given below.
What value of measured melting point is listed for `CC(=O)O[C@@H]1O[C@H](CSc2c(C)c(O)c3c(c2O)C(=O)C(C)=C(C)C3=O)[C@@H](OC(C)=O)[C@H](OC(C)=O)[C@H]1OC(C)=O` ?
148 to 151 °C
